- Test target: human melanocortin-4 (MC-4) receptor (human, UniProt P32245)
- Assay: displacement of 125I-AGRP, membranes of HEK 293 cells with hMC4 (value column 2; its head prints hMC3)
Square brackets hold non-standard residues; d marks the D form. Ends that are not written are not given here. Abu = CC[C@H](N)C(=O)O
Reported values of pIC50 for individual entries
Just the number, please; pIC50 means minus log10 of the concentration in mol/L.

// below: answered binders
- Binder: "RNS[Abu]KPPAPAC[Abu]DP[Abu]AS[Abu]QCRFFRSACSCRVL (disulfide (positions not given here)) [peptide of SEQ ID NO:15]"
  Value kind: "pIC50"
  Result value: 7.35
- Binder: "AC[Abu]DP[Abu]AS[Abu]QCRFFRSACSCRVL (disulfide (positions not given here)) [peptide of SEQ ID NO:16]"
  Value kind: "pIC50"
  Result value: 6.55

Qu. Looking for the measured pIC50 of [Abu][Abu]DPCAT[Abu]YCRFFNAFCY[Abu]RKLGTAMNPCSRT (disulfide (positions not given here); not fully specified (bridges); also: disulfide pairing not given here) [peptide of SEQ ID NO:9] , can you help?
Ans. 7.14

Qu. Looking for the measured pIC50 of C[Abu]DPCAT[Abu]Y[Abu]RFFNAF[Abu]YCRKLGTAMNPCSRT (disulfide (positions not given here); also: oxidised to disulfides, pairs not given here) [peptide of SEQ ID NO:11] , can you help?
Ans. 6.10

Qu. Looking for the measured pIC50 of HESCLGQQVPC[Abu]DP[Abu]ATCY[Abu]RFFNAF[Abu]YCRKL (disulfide (positions not given here)) [peptide of SEQ ID NO:5] , can you help?
Ans. 6.42

Qu. Looking for the measured pIC50 of RNSCKPPAPAC[Abu]DP[Abu]ASCQCRFFRSACSCRVL (disulfide (positions not given here); not fully specified (bridges); printed as Arg-Asn-Ser-Cys-Lys-Pro-Pro-Ala-Pro-Ala-Cys-Abu-Asp-Pro-Abu-Ala-Ser-Cys-Gln-Cys-Arg-Phe-Phe-Arg-Ser-Ala-Cys-Ser-Cys-Arg-Val-Leu; also: three disulfides, pairing not given here) [peptide of SEQ ID NO:13] , can you help?
Ans. 7.22

Qu. Looking for the measured pIC50 of HESCLGQQVP[Abu][Abu]DP[Abu]ATCYCRFFNAFCY[Abu]RKL (disulfide (positions not given here)) [peptide of SEQ ID NO:3] , can you help?
Ans. 6.80

Qu. Looking for the measured pIC50 of RNSCKPPAPA[Abu][Abu]DP[Abu]ASCQCRFFRSACS[Abu]RVL (disulfide (positions not given here); also: oxidised to disulfides, pairs not given here) [peptide of SEQ ID NO:14] , can you help?
Ans. 6.05
